- MEASUREMENT_NOTES: In vitro alpha-2 adrenergic receptor binding affinity was determined on calf frontal cortex membrane preparation
- Format: tissue-based, Bos taurus
OBSERVED_PROPERTY: Ki (nM)
The reply should be a number in nM, with the unit left off.

In one line, give reported Ki of the entry COc1ccc2c(c1)N(C)CC(C1=NCCN1)O2 (stereo unspecified) .
287

Please list Ki recorded for the compound CN1CC(C2=NCCN2)Oc2ccccc21 (stereo unspecified)
74

Provide measured Ki value, entry: Cc1cccc2c1OC(C1=NCCN1)CN2C (stereo unspecified)
7.3

Answer with reported Ki of c1cc2c3c(c1)OC(C1=NCCN1)CN3CCC2 (stereo unspecified)
340

Read the entry Cc1cc2c(cc1C)N(C)CC(C1=NCCN1)O2 (stereo unspecified) and write its reported Ki.
26

Return reported Ki. Input compound: Cc1cccc2c1N(C)CC(C1=NCCN1)O2 (stereo unspecified)
145

For COC(=O)c1ccc2c(c1)N(C)CC(C1=NCCN1)O2 (stereo unspecified) , write its Ki.
7500

State, in one line, measured Ki of CN1CC(C2=NCCN2)Oc2ccc(Cl)cc21 (stereo unspecified)
52.5

Report Ki, nothing else, for this compound: CN1CC(C2=NCCN2)Oc2ccc(F)cc21 (single isomer, unassigned; (-))
32.9

Reference source for all entries: ChEMBL document CHEMBL1136789
